test system: PPARg:RXRa 270nM:90nM, anti-RXR (NR concentration 270 nM, RXRa partner concentration 90 nM); test: PBM binding z-score (relative to random genomic background probes); higher = stronger binding; sequences stand for … in GC…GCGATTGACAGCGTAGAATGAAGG
Class assignment keyed on PBM binding z-score, ranges one (below 2), two (2 to below 7), three (7 or more)

// below: answered sequences
INSERT INTO results (ordered_residues, label_value) VALUES
  ('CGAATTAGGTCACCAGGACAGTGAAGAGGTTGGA', 'two'),
  ('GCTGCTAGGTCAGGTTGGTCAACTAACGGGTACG', 'one'),
  ('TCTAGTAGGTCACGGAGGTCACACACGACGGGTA', 'three'),
  ('TATACTGGGTCAAAGGCCAGAGTACGAATGTCGA', 'three'),
  ('CGTCAAAGCTCAACTAAGGTAACGTAAAGCACGC', 'one'),
  ('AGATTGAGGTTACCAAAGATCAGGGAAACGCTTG', 'two'),
  ('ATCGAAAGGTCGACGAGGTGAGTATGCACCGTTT', 'two'),
  ('CCGAGTAGGTTACGAGGGCGCATTCAGTGCGAAT', 'two');

Please indicate the class for "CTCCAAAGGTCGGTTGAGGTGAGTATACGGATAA" based on its PBM binding z-score.
one

The entry to classify is "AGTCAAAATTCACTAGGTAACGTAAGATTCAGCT" ; which class holds it?
one

Place this sequence in its band: "TCATATAGGTAATAAAGGTGAAAGTCGGCATCTA"
two

Consider "CGAACTAGGTCAAAGGACAGTAAAAGGCGACGTA" . To which PBM binding z-score class does it belong?
three

Record "TAGCCAAGGTCAGATCGGGCCAGTATACGCTATA" — which class?
two
